These entries and their values trace back to the supplement of paper PMC11451515.

tested on: P12-Ichikawa; experiment: cell viability relative to DMSO control; higher = less cytotoxic; details: RPMI 5 mM glucose + 10% dialyzed FBS; 48 h; 0.0211 µM
PROPERTY_MEASURED: cell viability (%)
Kindly provide the numeric value in % only, without the unit symbol.

Example results:
MOLECULE	cell viability (%)
COc1ccc(C(CN(C)C)C2(O)CCCCC2)cc1 (stereo unspecified)	103
Cc1nn(C)c(COc2ccc(N3CCN([S+](=O)([O-])N(C)C)CC3)cc2)c1-c1cccc2c(CCCOc3cccc4ccccc34)c(C(=O)O)n(CCN3CCOCC3)c12	106

Prompt line: Please look at this molecule and report its cell viability: CC[C@]12CC[C@H]3[C@@H](CCC/4=C/C(=O)CC[C@H]34)[C@@H]1CC[C@@]2(O)C#C
Response line: 79.3

Prompt line: Identify measured cell viability corresponding to O=C(O)CCCCC(CCSCc1ccccc1)SCc1ccccc1 (stereo unspecified)
Response line: 111

Prompt line: State its cell viability: NC(=O)[C@H]1CCS[C@@H]2C[C@]3(CCCN3C(=O)Cc3ccc(NC(=O)COc4ccc(Cl)cc4Cl)cc3)C(=O)N12
Response line: 134

Prompt line: Give the value of cell viability reported for the following: Cc1cc(OCCC[S+](C)(=O)[O-])cc(C)c1-c1cccc(COc2ccc3c(c2)OC[C@H]3CC(=O)O)c1
Response line: 98.5

Prompt line: For the molecule COc1cc2ncn(-c3cc(OCc4ccccc4[S+](C)(=O)[O-])c(C#N)s3)c2cc1OC , give its reported cell viability.
Response line: 94.9

Prompt line: Tell me cell viability reported for CCC(C)N1\N=C/N(C1=O)C2=CC=C(C=C2)N3CCN(CC3)C4=CC=C(OC[C@H]5CO[C@@](C[N]6C=NC=N6)(O5)C7=CC=C(Cl)C=C7Cl)C=C4 (stereo partly specified)
Response line: 111

Prompt line: Consider the molecule CC(=O)OC[C@H]1O[C@@H]([S-])[C@H](OC(C)=O)[C@@H](OC(C)=O)[C@@H]1OC(C)=O.CCP(CC)CC.[Au+] . State its measured cell viability.
Response line: 92.7

Prompt line: Give the measured cell viability for CCN(CCO)CCCOc1ccc2c(Nc3cc(CC(=O)Nc4cccc(F)c4)[nH]n3)ncnc2c1
Response line: 111

Prompt line: Give cell viability for the following molecule: O=C(CC12CC3CC(CC(C3)C1)C2)Nc1cccc2nc(NCCNCCO)ccc12
Response line: 99.4
